# Test system: S. cohnii c.i.
# method.description: MIC/MBC broth microdilution, S. cohnii
# Assay type: cell-based, Staphylococcus cohnii
# condition.summary: H2O
Residues, ends and D or L forms follow the SMILES beside them.
measurement.label: MIC

Field: example entries. Status: answers known.
{"compound": "CC(C)C[C@H](NC(=O)[C@H](CCCNC(=N)N)NC(=O)OCc1ccccc1)C(=O)N[C@H](CN)C(C)C [Compound A-197]", "MIC": "> 512 µg/mL"}
{"compound": "C=CCC(=O)NC[C@@H](NC(=O)[C@H](CC(C)C)NC(=O)[C@H](CCCNC(=N)N)NC(=O)OCc1ccccc1)C(C)C [Compound A-209]", "MIC": "> 512 µg/mL"}

Pending compound:
Problem: Name the recorded MIC for CC(C)[C@H](NC(=O)[C@H](Cc1c[nH]cn1)NC(=O)[C@H](CCCNC(=N)N)NC(=O)OCc1ccccc1)C(=O)NCCc1ccccc1 [Compound A-219] (HELM PEPTIDE1{[O=C(OCc1ccccc1)[*:2]].R.H.V.[c1ccc(CCN[*:1])cc1]}$$$$V2.0) .
Result: > 512 µg/mL
